molecular target: P. falciparum apicoplast DNA polymerase (Pf-apPOL) (Plasmodium falciparum, UniProt Q8ILY1); experiment: Fluorescence-based high-throughput DNA polymerase assay (molecular beacon), primary screen and dose-response; type: biochemical; conditions: DRC-1; concentration 2.5; 180';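 as to % inhibition apPOL 180': test concentration in µM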
Sequence (Q8ILY1 entry or part of it): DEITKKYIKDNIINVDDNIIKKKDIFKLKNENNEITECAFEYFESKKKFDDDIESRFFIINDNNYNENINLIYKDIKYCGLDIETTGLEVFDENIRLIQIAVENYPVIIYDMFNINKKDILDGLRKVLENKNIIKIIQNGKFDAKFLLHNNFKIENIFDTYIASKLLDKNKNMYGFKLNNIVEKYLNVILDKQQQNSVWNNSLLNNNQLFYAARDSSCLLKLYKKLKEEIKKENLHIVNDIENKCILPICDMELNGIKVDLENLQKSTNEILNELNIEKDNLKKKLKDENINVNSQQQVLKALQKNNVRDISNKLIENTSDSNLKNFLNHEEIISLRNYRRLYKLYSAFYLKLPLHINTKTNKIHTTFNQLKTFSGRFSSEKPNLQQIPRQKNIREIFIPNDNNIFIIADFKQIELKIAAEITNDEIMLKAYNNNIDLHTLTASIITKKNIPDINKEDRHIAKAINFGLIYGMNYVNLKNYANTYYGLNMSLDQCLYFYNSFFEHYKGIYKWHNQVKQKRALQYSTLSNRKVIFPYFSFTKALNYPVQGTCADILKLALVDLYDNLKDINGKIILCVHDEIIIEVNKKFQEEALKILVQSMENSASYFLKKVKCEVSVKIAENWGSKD
Form field: % inhibition apPOL 180' (one value per entry).
// return numeric value only (unit: %, not printed)

compound=Oc1cccnc1/N=C/c1cc(I)cc(I)c1O experimentalsystem="P. falciparum apicoplast DNA polymerase (Pf-apPOL) (Plasmodium falciparum, UniProt Q8ILY1)" result=7.269
compound="O=C(Cn1ccc2c(=O)[nH]ccc21)Nc1ccccc1Cl [Molecule 19, O=C(Cn1ccc2c1cc[nH]c2=O)Nc1ccccc1Cl]" experimentalsystem="P. falciparum apicoplast DNA polymerase (Pf-apPOL) (Plasmodium falciparum, UniProt Q8ILY1)" result=-2.947

The compound O=C(Cc1cccs1)N1CCN(c2nc(CN3CCOCC3)cs2)CC1 , tested on P. falciparum apicoplast DNA polymerase (Pf-apPOL) (Plasmodium falciparum, UniProt Q8ILY1), showed % inhibition apPOL 180' of -10

The compound O=C(O)c1cc([N+](=O)[O-])c(N2CCN(c3cccc(C(F)(F)F)c3)CC2)c([N+](=O)[O-])c1 , tested on P. falciparum apicoplast DNA polymerase (Pf-apPOL) (Plasmodium falciparum, UniProt Q8ILY1), showed % inhibition apPOL 180' of -1.314

The compound Nc1ncnc(NC2CCCCC2)c1[N+](=O)[O-] , tested on P. falciparum apicoplast DNA polymerase (Pf-apPOL) (Plasmodium falciparum, UniProt Q8ILY1), showed % inhibition apPOL 180' of 7.961

* * *

Form field: % inhibition Apo pol 10' (one value per entry).
molecular target: P. falciparum apicoplast DNA polymerase (Pf-apPOL) (Plasmodium falciparum); assay: Fluorescence-based high-throughput DNA polymerase assay (molecular beacon), primary screen and dose-response; format: biochemical; settings: DRC-1; concentration 20; 10'
// return numeric value only (unit: %, not printed)

As a guide, the following entries are already answered.
compound=O=C(Cc1cccs1)N1CCN(c2nc(CN3CCOCC3)cs2)CC1 result=76
compound=COc1ccc(C=C2Oc3c(ccc4c3CN(Cc3ccco3)CO4)C2=O)c(OC)c1 result=37.7158
compound=Cc1ccc(C2=N/C(=C\c3ccc(I)o3)C(=O)O2)cc1[N+](=O)[O-] result=76.1272
compound=O=C(O)c1cc([N+](=O)[O-])c(N2CCN(c3cccc(C(F)(F)F)c3)CC2)c([N+](=O)[O-])c1 result=54.2328

So for CCCCCc1c2c(cc(O)c1C(=O)O)OC(=O)c1c(cc(OC)cc1C(=O)CCCC)O2 , the logged % inhibition Apo pol 10' turned out to be 86.3655

So for CCOc1ccc2cc(C3=NN(C(=O)CCC(=O)O)C(c4ccc(C)cc4)C3)c(=O)[nH]c2c1 (centres unmarked) , the logged % inhibition Apo pol 10' turned out to be 32.0591

So for O=[N+]([O-])c1ccc(SCc2ccco2)c2cccnc12 , the logged % inhibition Apo pol 10' turned out to be 73.1419

So for Cc1cc(C)nc(Nc2nc(CC(=O)Nc3nc(-c4ccco4)cs3)cs2)n1 , the logged % inhibition Apo pol 10' turned out to be 80.2022

* * *

molecular target: P. falciparum apicoplast DNA polymerase (Pf-apPOL) (Plasmodium falciparum, UniProt Q8ILY1); test: Fluorescence-based high-throughput DNA polymerase assay (molecular beacon), primary screen and dose-response; format: biochemical; settings: DRC-1; read at 10'; concentration 40
# binarize % inhibition Apo pol 10' 40: threshold 60% inclusive, high side Met, low side Not met

Reference set (8 entries):
molecule="N#Cc1c(O)nc(N2CCCCC2)nc1-c1ccc2c(c1)OCO2 [KU0083146]" label=Met
molecule="Cc1ccsc1Cn1c(C)ccc1C [Molecule 70, Cc1ccsc1Cn1c(C)ccc1C]" label="Not met"
molecule="O=C(CCc1csc(NC(=O)Nc2ccccc2)n1)Nc1nc2ccccc2s1 [KU0177354]" label=Met
molecule="CCCc1ccc(Oc2coc3cc(OC)ccc3c2=O)cc1 [KU0193249]" label="Not met"
molecule="O=C(c1ccccc1)N1CCc2c(nc3cc(-c4ccccc4)[nH]n3c2=O)C1 [Molecule 30]" label=Met
molecule="CC(C)CC(C(=O)O)N1C(=O)C2C3C=CC(C2C1=O)C1C(=O)N(C(CC(C)C)C(=O)O)C(=O)C31 (centres unmarked) [KU0193449]" label="Not met"
molecule="Cc1cc2[nH]c(C(=O)Nc3ccc(F)cc3)c(CN3CCOCC3)c2s1 [Molecule 60]" label=Met
molecule="Cc1nc(C)c2c(n1)N(CC1CCCCC1)C(=O)CC2 [KU0218606]" label="Not met"

# input hey, is % inhibition Apo pol 10' 40 for this one >= 60%? COc1ccccc1CC(=O)N1CCc2c(nc3cc(-c4ccccc4Cl)[nH]n3c2=O)C1 [Molecule 49]
# output Met

# input hey, is % inhibition Apo pol 10' 40 for this one >= 60%? Cc1cccc(-c2noc(C(=O)NNC(=O)C(Cl)(Cl)Cl)n2)c1 [KU0266208]
# output Not met
